Source: the supplement of paper PMC6555819

tested on: PPARg:RXRa (NR concentration 180 nM, RXRa partner concentration 90 nM); test: PBM binding z-score (relative to random genomic background probes); higher = stronger binding; sequences stand for … in GC…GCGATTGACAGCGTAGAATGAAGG
Binary classification by PBM binding z-score, with 3 as an inclusive lower bound for satisfied; all other cases are not satisfied.

chainsequence=CGAACTAGGTCATTGACAGGGCAGTGAATAGTAA assignedclass=satisfied
chainsequence=TGAATGAGGTTAAAGATCAGGGATCGTGGCGTCG assignedclass=satisfied
chainsequence=TCATATAGGTAGAAGGTGAAAGTCGGTGTGGTAA assignedclass=satisfied

Prompt: API: above_or_equal(metric=PBM binding z-score, cutoff=3) for item AGAATGAGGGTACCAAAGATCAGGGAAACGCTTG
Completion: not satisfied

Prompt: Hi team, for AGAATGAGGTTACCAACGATCAGGGAAACGCTTG , is the recorded PBM binding z-score at or above 3?
Completion: not satisfied

Prompt: Reported PBM binding z-score reaches at least 3 for ATCGACAGGTCGTGAGGTGAGTATACAGAAAGGC ?
Completion: not satisfied

Prompt: Could you please find out whether CGTCCAGGGTCAGCAGGTCAGTGAAAGCGACGTG has PBM binding z-score that meets 3 or exceeds it?
Completion: satisfied

Prompt: Identify whether the reported PBM binding z-score of the following sequence is 3 or greater: ATATGTAGGTTAGCTGGGGGCATTCAGACTAGGC
Completion: satisfied

Prompt: Is it the case that TCTTGTAGATCAACAGGAGGTGAAGAAAGATCGA has PBM binding z-score reaching or exceeding 3?
Completion: not satisfied

Prompt: Identify whether the reported PBM binding z-score of the following sequence is 3 or greater: CGTCCAAGATCAAGGTCAGTGAAAGAGACTCGAA
Completion: not satisfied

Prompt: hey, is PBM binding z-score for this one >= 3? CCTAGCAGGCCAGGGTCACGCAAGCATTTCGCTT
Completion: satisfied

Prompt: Record CCTCCTGGGCCAAGGTCATTGATCAGTCAAAGCA ; criterion: PBM binding z-score no lower than 3. Met?
Completion: not satisfied

Prompt: I'd appreciate it if you could say whether TCAGACAGGTGAGGGTAACTCAGGTACGCAGTCG has PBM binding z-score at least equal to 3.
Completion: not satisfied

Prompt: Threshold query (PBM binding z-score >= 3) on CAAACTAGGTCAAGATCAAAGTCGGTTTGTGCCA
Completion: satisfied

Prompt: Determine whether measured PBM binding z-score meets or exceeds 3 for CCAGACAGGTGATAGGTAACTCAGTCTGGTACGC
Completion: not satisfied

Prompt: Dear colleague, could you confirm whether CGTCAAAGTTCAAGGTAACTTAACAGAAAGCAGC has PBM binding z-score at or above 3?
Completion: satisfied

Prompt: Check this sequence for PBM binding z-score at or above 3: TCTTGTAAATCAAGCAGGTTAAGAAAGCCTGAGT
Completion: not satisfied

Prompt: In plain terms: is recorded PBM binding z-score at least 3 for ATCTCTAGGTGAAGTTCAGTGAAAGATCGATAGA ?
Completion: not satisfied

###

tested on: RARg:RXRa (NR concentration 270 nM, RXRa partner concentration 90 nM); experiment: PBM binding z-score (relative to random genomic background probes); higher = stronger binding; sequences stand for … in GC…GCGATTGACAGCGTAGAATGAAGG
Assign PBM binding z-score to each entry below.
One number for each entry.

Below: 4 sequences and their reported PBM binding z-score.
chainsequence=ACTATTAGTTGACTTAGGGCTACCGATACGACGC observedresult=0.457
chainsequence=TCTATTAGTTGCTTAGGGCAACCGAAACAGCGGA observedresult=0.433
chainsequence=CCTTACGGGTCACTGACAGGTTATAACATTTGGA observedresult=5.87
chainsequence=CCTTACGGGTCCCGAGGTTATAGCACGACGAGCG observedresult=0.416

// for each sequence below, give its PBM binding z-score
1. CCAGACAGGTGAGAACGTAACTCAGCCTCGATTA
2. ATCGAAAGGTCGTGAGATGAGTATACAGAAAGGC
3. TAGCCTAGTTCAGATCGGGCCAGTATACGCTATA
4. TGCCAAAGTTCAAAGGTAACGTAAGTATCCACAC

Completion:
0.404
4.27
-0.0236
6.37
